test: NCI Yeast Anticancer Drug Screen. Data for the rad50EPP+ strain (AID 151);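 also: 0% = growth of vehicle-treated control cultures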; settings: S. cerevisiae rad50 mutant strain, at 3.7 µM, hits give high values
About 79,000 compounds went through this panel and 15% of them were active in at least one assay; those are over-represented in the sample as a whole.
metric name: growth inhibition (%)
Return type: number; implicit unit %.

Examples with their reported growth inhibition follow.
[
  {
    "compound": "CCCC/C=C1\\CCC(CN2CCCC2)C1=O (stereo not given)",
    "unit of measurement": "%",
    "growth inhibition": -6
  },
  {
    "compound": "COc1cc2c(cc1OC)[C@@H](Nc1ccc(C#N)cc1)C1COC(=O)[C@@H]1C2c1cc(OC)c(O)c(OC)c1 (stereo not given in full)",
    "unit of measurement": "%",
    "growth inhibition": -11
  },
  {
    "compound": "COc1ccc(-c2cc(-c3cc(C)cc(Cl)c3O)nc3[nH]c(=S)[nH]c(=S)c23)cc1",
    "unit of measurement": "%",
    "growth inhibition": -5
  },
  {
    "compound": "CN(CCOc1ccc(Cl)cc1)CCOc1ccc(Cl)cc1",
    "unit of measurement": "%",
    "growth inhibition": 7
  },
  {
    "compound": "CCCCN(CCCC)c1ccc(N=Nc2ccc(S(=O)(=O)O)cc2)cc1",
    "unit of measurement": "%",
    "growth inhibition": 8
  }
]

Query block: // Input: CC1=CN2C(c3ccccc3)=NON(c3ccc(C)cn3)C2C=C1 (stereo not given) . Output its growth inhibition only.
Result block: 1

Query block: Quote growth inhibition reported for O=C(NO)c1coc2ccccc2c1=O please.
Result block: -6

Query block: Identify growth inhibition associated with the compound COC(=O)C(=O)c1c(-c2ccc(Cl)c(Cl)c2)[nH]c2[nH]n(-c3ccccc3)c(=O)c2c1=O
Result block: 0

Query block: Give the value of growth inhibition reported for the following: CCC[CH2][Ge]([CH2]CCC)([CH2]CCC)[O]C(=O)C(O)c1ccccc1 (stereo not given)
Result block: 3

Query block: Determine its reported growth inhibition: CC(C)OC(=O)NNc1c(Cl)cc(Cl)cc1Cl
Result block: 31

###

experiment: NCI Yeast Anticancer Drug Screen. Data for the rad18 strain (AID 177); details: S. cerevisiae rad18 mutant growth inhibition; at 3.7 µM
Compounds without any hit were thinned out: in the full panel of roughly 79,000, 15% have a hit. Activity calls are given as the source filed them. Cut-off read from the data, not from the text of the source: active = growth inhibition above about 70%; inactive = the rest.
Allowed answers: 1 for active, 0 for inactive

Worked cases, answers included:
[
  {
    "compound": "CC(C)OC(=O)NNc1c(Cl)cc(Cl)cc1Cl",
    "group label": 0
  },
  {
    "compound": "Cc1ccc(Nc2n[nH]c(=S)s2)c(C)c1",
    "group label": 0
  },
  {
    "compound": "CCOC(=O)C(Cc1c2ccccc2cc2ccccc12)(NC(C)=O)C(=O)OCC",
    "group label": 0
  },
  {
    "compound": "O=C(C#Cc1ccccc1)Nc1ccccc1",
    "group label": 0
  },
  {
    "compound": "COc1ccccc1NC(=O)c1ccc(Cl)cc1",
    "group label": 0
  },
  {
    "compound": "COC(=O)C(Cl)(Cl)N=Nc1c(Cl)cc(Cl)c(C)c1Cl",
    "group label": 1
  }
]

Query block: Please let me know the test result on file for CCC[CH2][Sn]([CH2]CCC)([CH2]CCC)/[C](=C/[Si](C)(C)c1ccccc1)c1ccc2c(c1)OCO2 .
Result block: 1
